Source: patent US11963972B2

Would you mind telling me the reported inhibition at 20 µM of each entry?
test system: ZIKV Puerto Rico strain (PRVABC59); assay: ZIKV CPE MTS assay in human neuroblastoma (U251) cells; format: cell-based, Zika virus; details: Zika virus, U-251, read-out: ZIKV CPE MTS Assay percentage of inhibition at the concentration, H251
Write the number in % without appending the unit.

[in] Fill blank: measured inhibition at 20 µM of the compound CCOC(=O)[C@H](C)NP(=O)(OCC1C(n2cnc3c(N)cc(N)nc32)C[C@](C)(O)[C@@H]1O)Oc1ccccc1 (stereo partly shown) is ____.
[out] 42

[in] Need inhibition at 20 µM, item CC(C)OC(=O)[C@H](C)N[P@](=O)(OC[C@H]1O[C@@H](n2ccc(=O)[nH]c2=O)[C@](C)(F)[C@@H]1O)Oc1ccccc1
[out] 17

[in] Given the compound CC(C)OC(=O)[C@H](C)NP(=O)(OCC1O[C@@H](n2cnc3c(N=[N+]=[N-])nc(N)nc32)[C@](C)(O)[C@@H]1O)Oc1ccccc1 (stereo partly shown) , what is its reported inhibition at 20 µM?
[out] 20

[in] Would you mind telling me what inhibition at 20 µM value was observed for CCOC(=O)[C@@H](C)NP(=O)(OC[C@H]1O[C@@H](n2ccc(NO)nc2=O)C(C)(O)C1O)Oc1ccccc1 (stereo partly shown) ?
[out] 27

====

Would you kindly list IC50 for each of these molecules?
experiment: Cytotoxicity MTT assay in HepG2 cells; format: cell-based; settings: human
Quick reminder: number only, in µM, skip the unit.

[in] Request the reported IC50 associated with C[C@@H]1C[C@@H]([C@H](O)CC2CC(=O)NC(=O)C2)C(=O)[C@@H](C)C1
[out] 0.3

[in] Recorded IC50 of CC1(O)C(O)[C@@H](CO)O[C@H]1n1ccc(N)nc1=O (some centres unmarked) , please.
[out] 59.1

====

Field: IC50. Provide a value for each of the compounds that follow.
assay: Cytotoxicity MTT assay in Huh7 cells; assay type: cell-based; settings: human

[in] What does the record list as IC50 for CC(C)OC(=O)[C@H](C)NP(=O)(OCC1O[C@@H](n2cnc3c(N)nc(N)nc32)[C@](C)(O)[C@@H]1O)Oc1ccccc1 (stereo partly shown) ?
[out] > 100 µM

[in] Reported IC50 for CCOC(=O)[C@H](C)NP(=O)(OCC1O[C@@H](n2cnc3c(NOC)nc(N)nc32)[C@](C)(O)[C@@H]1O)Oc1ccccc1 (stereo partly shown) : what is it?
[out] 94 µM

[in] Using the record for CC1(O)C(O)[C@@H](CO)O[C@H]1n1ccc(N)nc1=O (stereo partly shown) , report its IC50.
[out] > 100 µM

[in] For CC(C)OC(=O)[C@H](C)NP(=O)(OCC1O[C@@H](n2cnc3c(N=[N+]=[N-])nc(N)nc32)[C@](C)(O)[C@@H]1O)Oc1ccccc1 (stereo partly shown) , what is its reported IC50?
[out] > 100 µM

[in] Tell me the measured IC50 of CC(C)OC(=O)[C@H](C)N[P@](=O)(OC[C@H]1O[C@@H](n2ccc(=O)[nH]c2=O)[C@](C)(F)[C@@H]1O)Oc1ccccc1 , please.
[out] 49.3 µM

[in] Item under review: CCOC(=O)[C@@H](C)NP(=O)(OC[C@H]1O[C@@H](n2ccc(NO)nc2=O)C(C)(O)C1O)Oc1ccccc1 (stereo partly shown) . Reported IC50?
[out] > 100 µM

[in] Report IC50 for CCOC(=O)[C@H](C)NP(=O)(OC[C@H]1O[C@@H](n2cnc3c(N)nc(N=[N+]=[N-])nc32)C(C)(O)C1O)Oc1ccccc1 (stereo partly shown) please.
[out] > 100 µM

====

test: Cytotoxicity MTT assay in PBM cells; format: cell-based; conditions: human; PBM cells
measured-quantity: IC50

[in] # query: IC50 of entry CCOC(=O)[C@H](C)NP(=O)(OCC1C(n2cnc3c(N)cc(N)nc32)C[C@](C)(O)[C@@H]1O)Oc1ccccc1 (stereo partly drawn)
[out] > 100 µM

[in] Looking for the measured IC50 of CCOC(=O)[C@@H](C)NP(=O)(OC[C@H]1O[C@@H](n2ccc(NO)nc2=O)C(C)(O)C1O)Oc1ccccc1 (stereo partly drawn) , can you help?
[out] > 100 µM

[in] Bench note: what IC50 did CC(C)OC(=O)[C@H](C)NP(=O)(OCC1O[C@@H](n2cnc3c(N)nc(N)nc32)[C@](C)(O)[C@@H]1O)Oc1ccccc1 (stereo partly drawn) show?
[out] > 100 µM

[in] Look at this compound and give its reported IC50. CC(C)OC(=O)[C@H](C)NP(=O)(OC[C@H]1O[C@@H](n2cc(F)c3c(N)ncnc32)[C@](C)(O)C1O)Oc1ccccc1 (stereo partly drawn)
[out] 34.7 µM

[in] Record request: IC50 value, item CC(C)OC(=O)[C@H](C)NP(=O)(OCC1O[C@@H](n2cnc3c(N=[N+]=[N-])nc(N)nc32)[C@](C)(O)[C@@H]1O)Oc1ccccc1 (stereo partly drawn)
[out] > 100 µM

[in] Fill in: IC50 of C[C@@H]1C[C@@H]([C@H](O)CC2CC(=O)NC(=O)C2)C(=O)[C@@H](C)C1 is ___
[out] 0.9 µM

[in] I would be grateful if you could share the reported IC50 for CC(C)OC(=O)[C@H](C)N[P@](=O)(OC[C@H]1O[C@@H](n2ccc(=O)[nH]c2=O)[C@](C)(F)[C@@H]1O)Oc1ccccc1 .
[out] > 100 µM

[in] Which IC50 is listed for CCOC(=O)[C@H](C)NP(=O)(OCC1O[C@@H](n2cnc3c(NOC)nc(N)nc32)[C@](C)(O)[C@@H]1O)Oc1ccccc1 (stereo partly drawn) ?
[out] > 100 µM

[in] Please give the measured IC50 for this compound: CCOC(=O)[C@H](C)NP(=O)(OC[C@H]1O[C@@H](n2cnc3c(N)nc(N=[N+]=[N-])nc32)C(C)(O)C1O)Oc1ccccc1 (stereo partly drawn)
[out] > 100 µM

[in] Field request: IC50 | item: CC(C)OC(=O)[C@H](C)NP(=O)(OC[C@H]1O[C@@H](n2ccc(NO)nc2=O)C(C)(O)C1O)Oc1ccccc1 (stereo partly drawn)
[out] > 100 µM

[in] Item under review: CC(C)OC(=O)[C@H](C)NP(=O)(OC[C@H]1O[C@@H](n2ccc(N)nc2=O)C(F)(Cl)C1O)Oc1ccccc1 (stereo partly drawn) . Reported IC50?
[out] > 100 µM

[in] Tell me the measured IC50 of CC(C)OC(=O)[C@H](C)NP(=O)(OC[C@H]1O[C@@H](n2ccc(=O)[nH]c2=O)[C@@](F)(Cl)C1O)Oc1ccccc1 (stereo partly drawn) , please.
[out] > 100 µM

====

Task for the reader: assign each of the following compounds its reported IC50.
test: Cytotoxicity MTT assay in Vero cells; assay type: cell-based; conditions: African green monkey

[in] Value lookup for IC50; key = C[C@@]1(O)C(n2cnc3c(N)ncnc32)O[C@H](CO)[C@@H]1O (some centres unmarked)
[out] > 100 µM

[in] Request the reported IC50 associated with CC(C)OC(=O)[C@H](C)N[P@](=O)(OC[C@H]1O[C@@H](n2ccc(=O)[nH]c2=O)[C@](C)(F)[C@@H]1O)Oc1ccccc1
[out] > 100 µM

[in] What IC50 value was documented for this compound, CC(C)OC(=O)[C@H](C)NP(=O)(OC[C@H]1O[C@@H](n2ccc(NO)nc2=O)C(C)(O)C1O)Oc1ccccc1 (some centres unmarked) ?
[out] > 100 µM

[in] // returns reported IC50 for input CC(C)OC(=O)[C@H](C)NP(=O)(OC[C@H]1O[C@@H](n2ccc(N)nc2=O)C(F)(Cl)C1O)Oc1ccccc1 (some centres unmarked)
[out] > 100 µM

[in] For the compound shown here, O=C(O)c1cc(/N=N/c2ccc(S(=O)(=O)Nc3ccccn3)cc2)ccc1O [drawing 106] , give the reported IC50.
[out] > 100 µM

[in] Requested read-out: IC50. Entry: CCOC(=O)[C@H](C)NP(=O)(OCC1C(n2cnc3c(N)cc(N)nc32)C[C@](C)(O)[C@@H]1O)Oc1ccccc1 (some centres unmarked)
[out] > 100 µM

[in] # input compound: O=c1nc(NO)ccn1[C@@H]1O[C@H](CO)C(O)C1O (some centres unmarked) [drawing 107] ; wanted: its IC50
[out] 7.7 µM

[in] Given the entry CC1(O)C(O)[C@@H](CO)O[C@H]1n1ccc(N)nc1=O (some centres unmarked) , report its measured IC50.
[out] > 100 µM

[in] Data request, read-out IC50, for CCOC(=O)[C@@H](C)NP(=O)(OC[C@H]1O[C@@H](n2ccc(NO)nc2=O)C(C)(O)C1O)Oc1ccccc1 (some centres unmarked)
[out] > 100 µM

[in] Which IC50 is listed for CCOC(=O)[C@H](C)NP(=O)(OC[C@H]1O[C@@H](n2cnc3c(N)nc(N=[N+]=[N-])nc32)C(C)(O)C1O)Oc1ccccc1 (some centres unmarked) ?
[out] > 100 µM

[in] Requested read-out: IC50. Entry: C[C@@H]1C[C@@H]([C@H](O)CC2CC(=O)NC(=O)C2)C(=O)[C@@H](C)C1
[out] 0.2 µM
